Target: C-X-C chemokine receptor type 6 (Homo sapiens)
Experiment: Antagonist activity at Prolink-tagged human CXCR6 receptor assessed as inhibition of forskolin-induced cAMP accumulation by DiscoveRx cell based assay relative to control
Format: functional
Parameters: concentration or dose not given beside the values
Details: concentration not given here
Sequence (O00574 whole entry, looked up): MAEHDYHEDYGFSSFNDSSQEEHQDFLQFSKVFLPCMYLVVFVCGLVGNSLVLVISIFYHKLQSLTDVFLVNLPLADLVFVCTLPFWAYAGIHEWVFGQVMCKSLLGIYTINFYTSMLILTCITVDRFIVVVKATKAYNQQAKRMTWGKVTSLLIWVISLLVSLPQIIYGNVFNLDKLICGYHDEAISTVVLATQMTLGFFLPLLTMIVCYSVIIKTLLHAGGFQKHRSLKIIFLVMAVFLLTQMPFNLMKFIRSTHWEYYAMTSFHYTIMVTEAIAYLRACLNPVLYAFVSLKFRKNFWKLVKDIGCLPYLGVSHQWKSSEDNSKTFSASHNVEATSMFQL
Attribute: inhibition
Hi! Could you send only the number? It should be in %, unit omitted.

> print(dat)
                               smiles.input  display.unit  reading
1  COc1cc(C(=O)N[C@@H]2C[C@H]3CCC[C@@H](C2)N3Cc2nc3c(C)cccc3s2)cc(OC)c1OC             %       86
2  COc1cc(C(=O)N[C@@H]2C[C@H]3CCC[C@@H](C2)N3Cc2ccc3ccccc3n2)cc(OC)c1OC             %       88
3  COc1cc(C(=O)N[C@@H]2C[C@H]3CCC[C@@H](C2)N3Cc2nc3c(C(F)(F)F)cccc3s2)cc(OC)c1OC             %       98

# value of inhibition, C-X-C chemokine receptor type 6 (Homo sapiens), item "COc1cc(C(=O)N[C@@H]2C[C@H]3CCC[C@@H](C2)N3CC(=O)Nc2cccc(Cl)c2)cc(OC)c1OC" = 97

---

Target: UniProt O00574
Test: Antagonist activity at Prolink-tagged human CXCR6 receptor assessed as inhibition of forskolin-induced cAMP accumulation by DiscoveRx cell based assay
Format: functional
Sequence (O00574 whole entry): as the sequence (O00574 whole entry, looked up) above
Measured metric: pIC50
Please keep in mind that pIC50 is minus log10 of the molar concentration; only the number is needed.

Below are worked cases with known answers.
> print(dat)
                               smiles.input  measured.metric  reading
1  COc1cc(C(=O)N[C@@H]2C[C@H]3CCC[C@@H](C2)N3CC(=O)Nc2ccccc2)cc(OC)c1OC            pIC50     4.51
2  COc1cccc(NC(=O)CN2[C@@H]3CCC[C@H]2C[C@H](NC(=O)c2cc(OC)c(OC)c(OC)c2)C3)c1            pIC50     4.29

# value of pIC50, UniProt O00574, item "COc1cc(C(=O)N[C@@H]2C[C@H]3CCC[C@@H](C2)N3Cc2ccccc2Cl)cc(OC)c1OC" = 4.94

# value of pIC50, UniProt O00574, item "COc1cc(C(=O)N[C@@H]2C[C@H]3CCC[C@@H](C2)N3CC(=O)Nc2cccc(Cl)c2)cc(OC)c1OC" = 5.37

# value of pIC50, UniProt O00574, item "COc1cc(C(=O)N[C@@H]2C[C@H]3CCC[C@@H](C2)N3CC(=O)Nc2ccc(Cl)cc2)cc(OC)c1OC" = 4.85

# value of pIC50, UniProt O00574, item "COc1cc(C(=O)N[C@@H]2C[C@H]3CCC[C@@H](C2)N3Cc2cccc(Cl)c2)cc(OC)c1OC" = 4.83

# value of pIC50, UniProt O00574, item "COc1cccc(C(=O)N[C@@H]2C[C@H]3CCC[C@@H](C2)N3CC(=O)Nc2ccc(Cl)cc2)c1" = 4.84

---

Biological target: C-X-C chemokine receptor type 6 (Homo sapiens)
Test: Antagonist activity at Prolink-tagged human CXCR6 receptor assessed as inhibition of forskolin-induced cAMP accumulation by DiscoveRx cell based assay relative to control
Type: functional
Set-up: concentration or dose not given beside the values
Conditions: concentration not given here
Attribute: inhibition
The reply should read as a number followed by its unit.

Below are worked cases with known answers.
> print(dat)
                               smiles.input  reading
1  COc1cc(C(=O)N[C@@H]2C[C@H]3CCC[C@@H](C2)N3CC(=O)Nc2cccc(C)c2)cc(OC)c1OC      92%
2  COc1cc(C(=O)N[C@@H]2C[C@H]3CCC[C@@H](C2)N3CC(=O)Nc2ccccc2Br)cc(OC)c1OC     104%
3  COc1cc(C(=O)N[C@@H]2C[C@H]3CCC[C@@H](C2)N3CC(=O)Nc2cccc(Br)c2)cc(OC)c1OC      92%
4  COc1cc(C(=O)N[C@@H]2C[C@H]3CCC[C@@H](C2)N3CC(=O)Nc2cc(C)ccc2C)cc(OC)c1OC     108%

Could you now look at the following compound, please?
Sample "COc1cc(C(=O)N[C@@H]2C[C@H]3CCC[C@@H](C2)N3Cc2cc3ccccc3s2)cc(OC)c1OC" ; inhibition observed: 49%

Just for reference, ChEMBL document CHEMBL4610036 is where these values come from.
